- Tested on: GLXMAW (Soybean, Williams)
- assay_notes: Preemergence herbicidal evaluation
- Type: in vivo, Glycine max, (L.) Merr. cv Williams
- conditions_used: rate 0.2500 kg/ha; rated 4-5 weeks after treatment
measurement_label: Preemergence herbicidal rating GLXMAW

compound=CC(C)OC(=O)CN1C(=O)CSC1=Nc1cc(-n2c(=O)cc(C(F)(F)F)n(C)c2=O)c(F)cc1Cl system="GLXMAW (Soybean, Williams)" value_reported=5.5
compound=COC(=O)[C@@H](Cc1ccccc1)N1C(=O)CSC1=Nc1cc(-n2c(=O)cc(C(F)(F)F)n(C)c2=O)c(F)cc1Cl system="GLXMAW (Soybean, Williams)" value_reported=1.0
compound=CCOC(=O)CN1C(=O)CS(=O)(=O)C1=Nc1cc(-n2c(=O)cc(C(F)(F)F)n(C)c2=O)c(F)cc1Cl system="GLXMAW (Soybean, Williams)" value_reported=0.0
compound=CCOC(=O)[C@H](Cc1ccccc1)N1C(=O)CSC1=Nc1cc(-n2c(=O)cc(C(F)(F)F)n(C)c2=O)c(F)cc1Cl system="GLXMAW (Soybean, Williams)" value_reported=1.0
compound=Cn1c(C(F)(F)F)cc(=O)n(-c2cc(N=C3SCC(=O)N3CC(=O)OC(C)(C)C)c(Cl)cc2F)c1=O system="GLXMAW (Soybean, Williams)" value_reported=2.0
compound="C=CCOC(=O)CC1SC(=Nc2cc(-n3c(=O)cc(C(F)(F)F)n(C)c3=O)c(F)cc2Cl)N(CC=C)C1=O (centres unmarked)" system="GLXMAW (Soybean, Williams)" value_reported=5.0
compound=Cn1c(C(F)(F)F)cc(=O)n(-c2cc(N=C3SCC(=O)N3CC(=O)OC3CCCC3)c(Cl)cc2F)c1=O system="GLXMAW (Soybean, Williams)" value_reported=3.0
compound="C=CCN1C(=O)C(CC(=O)OC)SC1=Nc1cc(-n2c(=O)cc(C(F)(F)F)n(C)c2=O)c(F)cc1Cl (centres unmarked)" system="GLXMAW (Soybean, Williams)" value_reported=5.0
compound=C[C@@H](C(=O)O)N1C(=O)CS/C1=N/c1cc(-n2c(=O)cc(C(F)(F)F)n(C)c2=O)c(F)cc1Cl system="GLXMAW (Soybean, Williams)" value_reported=7.0
compound="C#CCOC(=O)CC1SC(=Nc2cc(-n3c(=O)cc(C(F)(F)F)n(C)c3=O)c(F)cc2Cl)N(CC=C)C1=O (centres unmarked)" system="GLXMAW (Soybean, Williams)" value_reported=2.0
compound="COC(=O)C(C)OC(=O)CN1C(=O)CSC1=Nc1cc(-n2c(=O)cc(C(F)(F)F)n(C)c2=O)c(F)cc1Cl (centres unmarked)" system="GLXMAW (Soybean, Williams)" value_reported=2.0
